System: Pectobacterium parmentieri SCC3193
procedure_details: DuctApe activity index (growth/respiration on compound as sole nutrient source, blank-subtracted) (activity index (0-3)); higher = stronger utilization of the compound, active = 3 or more
measurement_parameters: nutrient role (plate category): phosphate & sulphur
property_measured: DuctApe activity index

N[C@@H](CS)C(=O)O :: 0
O=P(O)(O)OC[C@H]1OC(O)[C@@H](O)[C@@H](O)[C@@H]1O (stereo partly drawn) [D-Mannose-6-Phosphate] :: 1
C[N+](C)(C)CCOP(=O)(O)O :: 1
O=S(=O)(O)O [Sulfate] :: 1
Nc1ncnc2c1ncn2[C@@H]1O[C@H](CO)[C@@H](O)[C@H]1OP(=O)(O)O [Adenosine 2`-Monophosphate] :: 2

###

Collected DuctApe activity index values appear next to each entry.
Tested on: Pectobacterium parmentieri SCC3193
procedure_details: DuctApe activity index (growth/respiration on compound as sole nutrient source, blank-subtracted) (activity index (0-3)); higher = stronger utilization of the compound, active = 3 or more
measurement_parameters: nutrient role (plate category): phosphate & sulphur
property_measured: DuctApe activity index

NC(CCSCC(N)C(=O)O)C(=O)O (centres undefined) :: 1
NC(Cc1ccc(OP(=O)(O)O)cc1)C(=O)O (stereo in doubt) :: 2
NCCS :: 1
C=C(OP(=O)(O)O)C(=O)O [Phosphoenol Pyruvate] :: 2
Nc1ncnc2c1ncn2[C@@H]1O[C@H](CO)[C@@H](OP(=O)(O)O)[C@H]1O [Adenosine 3`-Monophosphate] :: 2
O=P(O)(O)CP(=O)(O)O :: 0
N[C@@H](CS(=O)(=O)O)C(=O)O :: 1
CC(=O)N[C@@H](CS)C(=O)O :: 1
Cc1cn([C@H]2C[C@H](O)[C@@H](COP(=O)(O)O)O2)c(=O)[nH]c1=O [Thymidine 5`-Monophosphate] :: 2

###

Test system: Pectobacterium parmentieri SCC3193
procedure_details: DuctApe activity index (growth/respiration on compound as sole nutrient source, blank-subtracted) (activity index (0-3)); higher = stronger utilization of the compound, active = 3 or more
measurement_parameters: nutrient role (plate category): phosphate & sulphur
Possible outcomes: YES for active, NO for inactive

N[C@@H](CS)C(=O)NCC(=O)O :: NO
O=P(O)(O)OC[C@H](O)CO (racemic) [DL-a-Glycerol Phosphate] :: NO
O=C(O)[C@H](O)[C@@H](O)[C@H](O)[C@H](O)COP(=O)(O)O :: NO
Nc1ccn([C@@H]2O[C@H](CO)[C@@H](O)[C@H]2OP(=O)(O)O)c(=O)n1 [Cytidine 2`-Monophosphate] :: YES
O=P1(O)OP(=O)(O)OP(=O)(O)O1 [Trimetaphosphate] :: NO
N[C@@H](CSCSC[C@H](N)C(=O)O)C(=O)O :: NO
N[C@@H](CS(=O)O)C(=O)O :: NO
CSC[C@H](N)C(=O)O :: NO

###

Collected DuctApe activity index values appear next to each entry.
Tested on: Pectobacterium parmentieri SCC3193
procedure_details: DuctApe activity index (growth/respiration on compound as sole nutrient source, blank-subtracted) (activity index (0-3)); higher = stronger utilization of the compound, active = 3 or more
measurement_parameters: nutrient role (plate category): nitrogen
property_measured: DuctApe activity index

N[C@@H](Cc1ccccc1)C(=O)O [L-Phenylalanine] :: 0
NCCCC[C@@H](N)C(=O)O [D-Lysine] :: 0
O=c1[nH]c(=O)c2nc[nH]c2[nH]1 [Xanthine] :: 3
N[C@@H](Cc1ccc(O)cc1)C(=O)O [L-Tyrosine] :: 0
CC(=O)N[C@@H]1C(O)O[C@H](CO)[C@@H](O)[C@@H]1O (stereo partly drawn) [N-Acetyl-D-Mannosamine] :: 0
CSCC[C@H](N)C(=O)O [L-Methionine] :: 0

###

Test system: Pectobacterium parmentieri SCC3193
procedure_details: DuctApe activity index (growth/respiration on compound as sole nutrient source, blank-subtracted) (activity index (0-3)); higher = stronger utilization of the compound, active = 3 or more
measurement_parameters: nutrient role (plate category): carbon
Possible outcomes: active, inactive

O=C(O)[C@H](O)[C@@H](O)[C@H](O)[C@H](O)CO :: active
C[N+](C)(C)CC(O)CC(=O)[O-] (racemic) :: inactive
CC1OC(O)C(O)C(O)C1O (stereo not given) :: inactive
OC[C@H](O)C(O)[C@@H](O)CO :: inactive
OCC1OC(OC2C(CO)OC(O)C(O)C2O)C(O)C(O)C1O (stereo not given) :: active
O[C@@H]1[C@H](O)[C@H](O)CO[C@H]1O :: active
NC(=O)CCC(=O)O :: active
O=C[C@H](O)[C@@H](O)[C@H](O)[C@H](O)COP(=O)(O)O [D-Glucose-6-Phosphate] :: active
CC(C)C[C@H](N)C(=O)O :: inactive
O=C(O)CCC(=O)C(=O)O :: inactive

###

System: Pectobacterium parmentieri SCC3193
procedure_details: DuctApe activity index (growth/respiration on compound as sole nutrient source, blank-subtracted) (activity index (0-3)); higher = stronger utilization of the compound, active = 3 or more
measurement_parameters: nutrient role (plate category): carbon
Possible outcomes: active, inactive

O=C(O)[C@H]1O[C@@H](O)[C@H](O)[C@@H](O)[C@H]1O :: active
NCC(=O)N[C@@H](CC(=O)O)C(=O)O :: inactive
O=C(O)CC(CC(=O)O)C(=O)O :: inactive
N[C@@H](CCO)C(=O)O :: inactive
C[C@H](O)[C@@H](N)C(=O)O :: inactive
O=C1CC[C@@H](C(=O)O)N1 :: inactive
O=CC(=O)O :: inactive
O=C(O)CCCCCCCCC(=O)O :: inactive
Nc1ncnc2c1ncn2[C@H]1C[C@H](O)[C@@H](CO)O1 :: inactive
OC1OC[C@@H](O)[C@H](O)[C@H]1O (stereo partly specified) :: active
OCC(O)CO :: active

###

Collected DuctApe activity index values appear next to each entry.
Tested on: Pectobacterium parmentieri SCC3193
procedure_details: DuctApe activity index (growth/respiration on compound as sole nutrient source, blank-subtracted) (activity index (0-3)); higher = stronger utilization of the compound, active = 3 or more
measurement_parameters: nutrient role (plate category): carbon
property_measured: DuctApe activity index

Cc1cn([C@H]2C[C@H](O)[C@@H](CO)O2)c(=O)[nH]c1=O :: 1
O=C(CO)CO [Dihydroxyacetone] :: 1
O=C1O[C@@H]([C@H](O)CO)[C@H](O)[C@H]1O :: 3
OC[C@H]1OC(O[C@H]2[C@H](O)[C@@H](CO)OC(O[C@H]3[C@H](O)[C@@H](CO)OC(O)[C@@H]3O)[C@@H]2O)[C@H](O)[C@@H](O)[C@@H]1O (stereo partly drawn) :: 0
C=C(CC(=O)O)C(=O)O :: 0
N[C@@H](CC(=O)O)C(=O)O :: 3
OC[C@H]1O[C@H](OC[C@H]2O[C@H](OC[C@H]3O[C@H](O[C@]4(CO)O[C@H](CO)[C@@H](O)[C@@H]4O)[C@H](O)[C@@H](O)[C@@H]3O)[C@H](O)[C@@H](O)[C@H]2O)[C@H](O)[C@@H](O)[C@H]1O :: 3
O=c1ccn([C@@H]2O[C@H](CO)[C@@H](O)[C@H]2O)c(=O)[nH]1 :: 1
O=C(O)CC(O)(CC(=O)O)C(=O)O :: 2
O=C[C@H](O)[C@@H](O)[C@H](O)[C@H](O)CO[C@@H]1O[C@H](CO)[C@@H](O)[C@H](O)[C@H]1O :: 3
O=P(O)(O)O[C@H]1O[C@H](CO)[C@@H](O)[C@H](O)[C@H]1O [D-Glucose-1-Phosphate] :: 0
OC[C@H]1OC(O)[C@H](O)[C@@H](O)[C@H]1O (stereo partly drawn) :: 3
C[C@H](O)C(=O)O :: 2
O=C1CC[C@@H](C(=O)O)O1 [a-Hydroxyglutaric acid-g-Lactone] :: 1
C[C@@H](O)[C@H](N)C(=O)O :: 0
C[C@H](N)C(=O)O :: 0
CC(=O)C(C)=O :: 0
N[C@H](CC(=O)O)C(=O)O :: 3

###

System: Pectobacterium parmentieri SCC3193
procedure_details: DuctApe activity index (growth/respiration on compound as sole nutrient source, blank-subtracted) (activity index (0-3)); higher = stronger utilization of the compound, active = 3 or more
measurement_parameters: nutrient role (plate category): phosphate & sulphur
property_measured: DuctApe activity index

C[C@@H](OP(=O)(O)O)[C@H](N)C(=O)O :: 2 (inactive)
NC(N)=S :: 0 (inactive)
O=P(O)(O)O [Phosphate] :: 1 (inactive)
Nc1nc2c(ncn2[C@@H]2O[C@H](CO)[C@@H](O)[C@H]2OP(=O)(O)O)c(=O)[nH]1 [Guanosine 2`-Monophosphate] :: 2 (inactive)
Nc1nc2c(ncn2[C@@H]2O[C@H](COP(=O)(O)O)[C@@H](O)[C@H]2O)c(=O)[nH]1 [Guanosine 5`-Monophosphate] :: 1 (inactive)
N[C@@H](Cc1ccc(OP(=O)(O)O)cc1)C(=O)O :: 2 (inactive)
O=c1ccn(C2OC(COP(=O)(O)O)C(O)C2O)c(=O)[nH]1 (centres undefined) [Uridine 5`-Monophosphate] :: 2 (inactive)
O=C(O)C(O)COP(=O)(O)O (centres undefined) :: 2 (inactive)
CS(=O)(=O)O :: 0 (inactive)

All figures here come from the supplement of paper PMC6518042.
